Target: T1, human GIP receptor (human, UniProt P48546 22-466)
T1 sequence (looked up): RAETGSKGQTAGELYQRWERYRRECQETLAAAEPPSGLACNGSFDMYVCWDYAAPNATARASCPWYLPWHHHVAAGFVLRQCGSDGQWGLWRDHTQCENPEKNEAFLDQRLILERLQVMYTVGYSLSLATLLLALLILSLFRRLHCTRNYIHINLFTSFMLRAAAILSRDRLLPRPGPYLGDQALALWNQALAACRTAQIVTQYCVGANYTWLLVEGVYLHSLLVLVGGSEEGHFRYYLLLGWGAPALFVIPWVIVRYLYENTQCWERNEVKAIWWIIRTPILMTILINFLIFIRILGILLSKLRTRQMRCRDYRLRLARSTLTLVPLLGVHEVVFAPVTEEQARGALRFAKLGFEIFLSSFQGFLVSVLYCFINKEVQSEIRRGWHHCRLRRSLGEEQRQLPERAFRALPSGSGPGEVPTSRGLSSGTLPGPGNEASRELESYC
Test: cell-based or functional assay
Ends that are not written are not given here.
Field 'label' (enum: class 1 / class 0). Set to class 1 when cAMP EC50 is strictly under 0.02 nM; else class 0.

YSEGTFTSDYSKLLEEEAVRLFIEWLVKGPGGGGGSATHTCPPCPAPEF (Fc fusion, cysteine pairing not given here; also: fused to IgG1-TM Fc) [IP234]
class 0
IP210 (Fc fusion) YSEGTFTSDLSKLLEEEAVRLFIEWLVKGPAAAGGSGSTASSGSGSATGGGGAATHTCPPCPAPEF
class 1
IP328 (Fc fusion) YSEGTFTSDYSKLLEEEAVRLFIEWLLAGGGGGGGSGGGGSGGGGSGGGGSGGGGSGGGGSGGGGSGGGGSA
class 0
IP384 (Fc fusion) YSEGTFTSDYSKLLEEEAVRLFIEWLLKGGGGGGSGGGGSGGGGSGGGGSATHTCPPC
class 1
IP261 (Fc fusion) YSEGTFTSDYSKLLEEEAVRLFVEWLVKGPGGGGGSGGGGSGGGGSGGGGSATHTCPPCPAPEF
class 0

Please indicate whether the reported cAMP EC50 of IP235 (Fc fusion, cysteine pairing not given here; also: fused to IgG1-TM Fc) YSEGTFTSDYSKLLEEEAVRLFIEWLVKGPGGGGGSGGGGSATHTCPPCPAPEF is strictly below 0.02 nM.
class 0

Recorded values, source patent US20160185837A1.
